system: MILI (PIWIL2) piRISC loaded with L1MC piRNA (26 nt); experiment: pre-steady-state target cleavage rate (min^-1); guide: L1MC piRNA 5'p-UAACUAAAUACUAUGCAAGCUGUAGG; MIWI and MILI are mouse PIWI proteins and EfPiwi is from a freshwater sponge; tags in brackets are library labels; higher = faster piRNA-guided slicing of the target; conditions: auxiliary factor: none (no GTSF1);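 further: 1 nM active piRISC with 0.1 nM target library at 33 °C single turnover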
Classify by pre-steady-state target cleavage rate. Ranges: c1 = under 0.004, c2 = from 0.004 up to 0.007, c3 = 0.007 and over

| biopolymer-sequence | cat |
| --- | --- |
| UCCUGGUACUGGUUGCAUAGUAUUUAGUUA | c3 |
| UCCUGGAUGUCGAUGCAUAGUUAUUAGUUA | c2 |
| UCCUGGUACAGCUUGCCUAGUAUUUAGUUA | c3 |
| UCCUGCUACAGGUUGCAUAGUAUUAAGUUA | c2 |
| UCCUGGAUGAGCAUGCAUAGUAUUUAGUAA | c2 |
| UCCUCCUACAGCUUGCAUACUAUUUAGUUA | c1 |
| UCCUGCUACACCUUGCAUAGUAUUUAGUAA | c2 |
| UCCUCCUACAGCUUGCAUAGUACUUAGUUA | c3 |
| UCCUGGAUCAGCUUGCAAUGUAUUUAGUUA | c2 |
| UCCUGGAUGUGCUUGCAAAGUAUUUAGUUA | c3 |
| UCCUGGAUGUCGAACCAAAGUAAUUAGUUA | c1 |
| UCCUCCUACAGGUAGCAUAGUAUUUAGUUA | c3 |
| UCCUCCAACAGCUUGCAUAGUUUUUAGUUA | c2 |
| UCCUGGAACUCGUUGCAUAGUAUUUAGUUA | c2 |
| UCCUGGAACAGGUUGCAUAGUAUAUAGUUA | c3 |
| UCCUGCUAGAGCUUGCAUUGUAUUUAGUUA | c3 |
| UCCUGGAUGUCGAACAAUAGUAUUUAGUUA | c1 |
| UCCUGGUACAGCUAGCAUAGUUUUUAGUUA | c3 |
| UCCUGGAUCAGCUUGCAUGGUAUUUAGUUA | c3 |
| UCCUGGAUCAGGUAGCAUAGUAUUUAGUUA | c2 |
| UCCUGGAUGUCCUUGCAUAGUAAAUAGUUA | c2 |
| UCCUGGAUUAGCUUGCAUAGUAUUUAGUUA | c3 |
| UCCUGGAUCAGCAUGCAUAGUAUUUAGAAA | c1 |
| UCCUGGAUCAGCUAUGCAUAGUAUUUAGUUA | c2 |
| UCCUGGAUGUCGAACGUAUGAUUUUAGUUA | c1 |
| UCCUGGAUGUCGAUGCAUCGUAUUUAGUUA | c3 |
| UCCUGGAUGUCCUUGGAUAGUAUUAAGUUA | c2 |
| UCCUGGAUGUCGUUGCAUAGUCUUUAGUUA | c2 |
| UCCUGGAUGUCCAUGGAUAGUAUUUAGUUA | c1 |
| UCCUGGAUGAGCUUGCAUAGUUUUUUGUUA | c1 |
| UCCUGGAUGUGGUUGCAUAGAAUUUAGUUA | c1 |
| UCCUGCUUCAGCUUGCAUACUAUUUAGUUA | c1 |
| UCCUGCUACAGCUUGCAUUCUAUUUAGUUA | c1 |
| UCCUGCUACAGCAUGCAUAGUAUUAAGUUA | c1 |
| UCCUCCUACAGCUUGCAUGGUAUUUAGUUA | c3 |
| UCCUGGAUGUCCUUGCAUACUUUUUAGUUA | c1 |
| UCCUGCUACAGCUUGCUUUGUAUUUAGUUA | c2 |
| UCCUGGAUCAGCUUGCAUAGUAUUUAGUGA | c2 |
| UCCUGCAACAGCUUGCAUAGUUUUUAGUUA | c1 |
| UCCUGGAUGUCGAACCAUAAUAUUUAGUUA | c1 |
| UCCUGGUUACAGCUUGCAUAGUAUUUAGUUA | c3 |
| UCCUCCUACAGCUUGCAUAGUAUUUAGUCA | c3 |
